Target: Human CXCR3 (N-delta 4) (Homo sapiens)
Construct: CD8 leader (N); Flag tag; expressed in transfected cells; membranes prepared
Assay: Human CXCR3 (N-delta 4) scintillation proximity assay (SPA), [125I] IP-10 binding to Ba/F3-hCXCR3 membranes
Conditions: IC50 rating; 25 pM [125I] IP-10, membranes of Ba/F3 cells expressing human CXCR3 (N-delta 4)
pIC50: −log10 of the molar value.
measured.attribute: pIC50

# annotated cases, reported pIC50 shown
* CC[C@H]1CN(c2nc(N)c(C(=O)NC3CCOC3=O)nc2Cl)CCN1C1CCN(C(=O)c2ccc(Cl)nc2N)CC1 (stereo partly drawn) | 7.00 to 7.60
* CC[C@H]1CN(c2nc(N)c(C(=O)NC3CC3)nc2Cl)CCN1C1CCN(C(=O)c2ccc(Cl)nc2N)CC1 | > 7.60
* CC[C@H]1CN(c2nc(N)c(C(=O)NCc3ccco3)nc2Cl)CCN1C1CCN(C(=O)c2ccc(Cl)nc2N)CC1 | 7.00 to 7.60
* CC[C@H]1CN(c2nc(N)c(C(=O)NCCO)nc2Cl)CCN1C1CCN(Cc2ccc(Cl)nc2N2CCOCC2)CC1 | 7.00 to 7.60

Next compound, pIC50 to be filled in.
Query CC[C@H]1CN(c2nc(N)c(C(=O)NCCO)nc2Cl)CCN1C1CCN(C(=O)c2cc(F)c(Cl)nc2Cl)CC1 yields pIC50 of > 7.60

* * *

Target: Human CXCR3 (N-delta 4) (Homo sapiens, UniProt P49682)
Construct: CD8 leader (N); Flag tag; expressed in transfected cells; membranes prepared
Sequence (P49682 5-368 limits assumed): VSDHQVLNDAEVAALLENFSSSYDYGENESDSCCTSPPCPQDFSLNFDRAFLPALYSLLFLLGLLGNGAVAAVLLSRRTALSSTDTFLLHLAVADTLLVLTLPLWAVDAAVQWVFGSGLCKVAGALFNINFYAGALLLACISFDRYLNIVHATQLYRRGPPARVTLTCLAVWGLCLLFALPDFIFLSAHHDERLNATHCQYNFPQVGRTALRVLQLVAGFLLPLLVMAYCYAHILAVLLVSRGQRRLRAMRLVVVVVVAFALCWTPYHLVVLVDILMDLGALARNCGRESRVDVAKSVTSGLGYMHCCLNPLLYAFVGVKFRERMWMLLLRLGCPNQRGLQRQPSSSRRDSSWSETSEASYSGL
Assay: Human CXCR3 (N-delta 4) scintillation proximity assay (SPA), [125I] IP-10 binding to Ba/F3-hCXCR3 membranes
Details: IC50 rating; 25 pM [125I] IP-10, membranes of Ba/F3 cells expressing human CXCR3 (N-delta 4)
Below, each entry is listed with its recorded IC50.

Entry CC[C@H]1CN(c2nc(N)c(C(N)=O)nc2Cl)CCN1C1CCN(C(=O)c2cc(F)c(N)nc2Cl)CC1 [compound 96] — recorded IC50 = > 100 nM

Record CC[C@H]1CN(c2nc(N)c(C(=O)NC3CC3)nc2Cl)CCN1C1CCN(C(=O)c2cc(F)c(N)nc2Cl)CC1 [compound 78] . Reported IC50: > 100 nM

Please fill in: IC50 reported for CC[C@H]1CN(c2ncc(C(=O)NC)nc2Cl)CCN1C1CCN(C(=O)c2ccc(Cl)nc2N)CC1 [compound 122] = < 25 nM

* * *

We begin with a simple list: items and their reported pIC50.
Molecular target: Human CXCR3 (N-delta 4) (Homo sapiens)
Construct: CD8 leader (N); Flag tag; expressed in transfected cells; membranes prepared
Experiment: Human CXCR3 (N-delta 4) scintillation proximity assay (SPA), [125I] IP-10 binding to Ba/F3-hCXCR3 membranes
Settings: IC50 rating; 25 pM [125I] IP-10, membranes of Ba/F3 cells expressing human CXCR3 (N-delta 4)
pIC50: −log10 of the molar value.

Recorded results for 10 compounds are shown here.
* CC[C@H]1CN(c2ncc(C(=O)NC3CC3)nc2C)CCN1C1CCN(C(=O)c2ccc(C(F)(F)F)nc2N)CC1 | > 7.60
* CC[C@H]1CN(c2nc(N)c(C(=O)NC3(CO)CC3)nc2Cl)CCN1C1CCN(C(=O)c2ccc(Cl)nc2N)CC1 | > 7.60
* CC[C@H]1CN(c2nc(N)c(C(=O)NCCNS(C)(=O)=O)nc2Cl)CCN1C1CCN(Cc2ccc(Cl)nc2N)CC1 | > 7.60
* CC[C@H]1CN(c2nc(N)c(C(=O)OC)nc2Cl)[C@H](C)CN1C1CCN(C(=O)c2ccc(Cl)nc2N)CC1 | > 7.60
* CC[C@H]1CN(c2nc(N)c(C(=O)NN)nc2Cl)CCN1C1CCN(C(=O)c2cnc(Cl)c(Cl)c2)CC1 | 7.00 to 7.60
* CC[C@H]1CN(c2nc(N)c(C(=O)NCCO)nc2Cl)CCN1C1CCN(C(=O)c2cnc(Cl)nc2C(F)(F)F)CC1 | < 7.00
* CC[C@H]1CN(c2nc(N)c(C(N)=O)nc2Cl)CCN1C1CCN(Cc2ccc(Cl)nc2N)CC1 | > 7.60
* CC[C@H]1CN(c2nc(N)c(C(=O)NC)nc2Cl)CCN1C1CCN(C(=O)c2cc(F)c(Cl)nc2N)CC1 | > 7.60
* CC[C@H]1CN(c2nc(N)c(C(=O)N[C@@H]3CCC[C@H]3O)nc2Cl)CCN1C1CCN(C(=O)c2ccc(Cl)nc2N)CC1 | > 7.60
* CC[C@H]1CN(c2nc(N)c(C(=O)NCCO)nc2Cl)CCN1C1CCN(C(=O)c2ccc(C)nc2Cl)CC1 | < 7.00

Lookup result for CC[C@H]1CN(c2ncc(C(=O)NC3CC3)nc2C(F)(F)F)CCN1C1CCN(C(=O)c2ccc(Cl)nc2N)CC1 ; measured pIC50: > 7.60

The reported value for CC[C@H]1CN(c2nc(NCCOC)c(C(=O)NC3CC3)nc2Cl)CCN1C1CCN(C(=O)c2ccc(Cl)nc2N)CC1 in terms of pIC50 is > 7.60

# pIC50 of CC[C@H]1CN(c2nc(N)c(C(=O)NCCNS(C)(=O)=O)nc2Cl)CCN1C1CCN(C(=O)c2ccc(Cl)nc2N)CC1 = 7.00 to 7.60

Lab note: CC[C@H]1CN(c2nc(N)c(C(=O)N/C(N)=N/C#N)nc2Cl)CCN1C1CCN(C(=O)c2ccc(Cl)nc2N)CC1 gave pIC50 of < 7.00

Reported pIC50 of CC[C@H]1CN(c2nc(N)c(C(=O)NC3CC3)nc2C)[C@H](C)CN1C1CCN(C(=O)c2ccc(Cl)nc2N)CC1 : > 7.60

Looking up CC[C@H]1CN(c2ncc(C(N)=O)nc2C)[C@H](C)CN1C1CCN(C(=O)c2ccc(Cl)nc2N)CC1 , I found its pIC50 recorded as > 7.60

Kindly note the recorded pIC50 for CC[C@H]1CN(c2nc(N)c(C(=O)NCC(C)O)nc2Cl)CCN1C1CCN(C(=O)c2ccc(Cl)nc2N)CC1 (stereo partly drawn) , which is > 7.60

// pIC50 value for CC[C@H]1CN(c2ncc(C(=O)O)nc2Cl)CCN1C1CCN(C(=O)c2ccc(Cl)nc2N)CC1 : < 7.00

Note to self: pIC50 recorded for CC[C@H]1CN(c2nc(N)c(C(=O)NC3CC3)nc2Cl)CCN1C1CCN(C(=O)c2cc(F)c(Cl)nc2Cl)CC1 was > 7.60

For CC[C@H]1CN(c2nc(N)c(C(=O)Nc3cc(O)[nH]n3)nc2Cl)CCN1C1CCN(C(=O)c2ccc(Cl)nc2N)CC1 the compound record lists pIC50 as < 7.00

Kindly note the recorded pIC50 for CC[C@H]1CN(c2nc(N)c(C(=O)NC3CC3)nc2Cl)CCN1C1CCN(C(=O)c2sc(C)nc2C)CC1 , which is < 7.00
